Source of measurements: IntAct's records for PubMed 25910212

B1: Cyclin-dependent kinase 4 (Homo sapiens), P11802 (parent)
chain: MATSRYEPVAEIGVGAYGTVYKARDPHSGHFVALKSVRVPNGGGGGGGLPISTVREVALLRRLEAFEHPNVVRLMDVCATSRTDREIKVTLVFEHVDQDLRTYLDKAPPPGLPAETIKDLMRQFLRGLDFLHANCIVHRDLKPENILVTSGGTVKLADFGLARIYSYQMALTPVVVTLWYRAPEVLLQSTYATPVDMWSVGCIFAEMFRRKPLFCGNSEADQLGKIFDLIGLPPEDDWPRDVSLPRGAFPPRGPRPVQSVVPEMEESGAQLLLEMLTFNPHKRISAFRALQHSYLHKDEGNPE

# Variants of: B1
# protocol_conditions: with cdn2c_human CDKN2C
experimental_endpoint: effect of a mutation on the interaction

| mutant | result |
| --- | --- |
| S52N | with no effect |
| N41S | with no effect |
